tested on: Enterococcus sp.; assay: in vitro antibacterial evaluation, MIC by broth dilution; assay type: cell-based; conditions: broth dilution, 18 hours at 35° C.; strain GC 2691
experimental_readout: MIC Enterococcus faecalis (GC 2691)

1) CN=C1N(C)CC(CC2NC(=O)C(Cc3ccc(OC4OC(CO)C(OC5OC(CO)C(O)C(O)C5O)C(O)C4O)cc3)NC(=O)C(C(C)c3ccccc3)NC(=O)CNC(=O)C(CO)NC(=O)C(CC3CN(C)C(=NC)N3C3OC(CO)C(O)C(O)C3O)NC2=O)N1C (centres unmarked) = >128 µg/mL
2) CC(c1ccccc1)C1NC(=O)CNC(=O)C(CO)NC(=O)C(C(O)C2CN(c3nc4ccccc4s3)C(=N)N2C2OC(CO)C(O)C(O)C2O)NC(=O)C(C(O)C2CNC(=Nc3nc4ccccc4s3)N2)NC(=O)C(Cc2ccc(OC3OC(CO)C(OC4OC(CO)C(O)C(O)C4O)C(O)C3O)cc2)NC1=O (centres unmarked) = >64 µg/mL

----------
test system: Staphylococcus sp.; assay: in vitro antibacterial evaluation, MIC by broth dilution; type: cell-based; settings: broth dilution, 18 hours at 35° C.
experimental_readout: MIC Staphylococcus aureus (GC 3053)

1. CC(c1ccccc1)C1NC(=O)CNC(=O)C(CO)NC(=O)C(CC2CNC(=N)N2C2OC(CO)C(O)C(O)C2O)NC(=O)C(CC2CNC(=N)N2)NC(=O)C(Cc2ccc(OC3OC(CO)C(OC4OC(CO)C(O)C(O)C4OCc4ccc(OCc5ccccc5)cc4)C(O)C3O)cc2)NC1=O (stereo not shown) [Example 246c] = >128 µg/mL
2. Cc1ccc(CC2OCC3OC(OC4C(CO)OC(Oc5ccc(CC6NC(=O)C(C(C)c7ccccc7)NC(=O)CNC(=O)C(CO)NC(=O)C(C(O)C7CNC(=N)N7C7OC(CO)C(O)C(O)C7O)NC(=O)C(C(O)C7CNC(=N)N7)NC6=O)cc5)C(O)C4O)C(O)C(O)C3O2)cc1 (stereo not shown) = 2 µg/mL
3. CC(C)CC(=O)OC1C(OC2C(CO)OC(Oc3ccc(CC4NC(=O)C(C(C)c5ccccc5)NC(=O)CNC(=O)C(CO)NC(=O)C(CC5CNC(=N)N5C5OC(CO)C(O)C(O)C5O)NC(=O)C(CC5CNC(=N)N5)NC4=O)cc3)C(O)C2O)OC(CO)C(O)C1O (stereo not shown) [Example 277b] = >64 µg/mL
4. CC(c1ccccc1)C1NC(=O)CNC(=O)C(CO)NC(=O)C(C(O)C2CNC(=N)N2C2OC(CO)C(O)C(O)C2O)NC(=O)C(C(O)C2CNC(=N)N2)NC(=O)C(Cc2ccc(OC3OC(CO)C(OC4OC(CO)C(O)C(O)C4O)C(O)C3O)c(N)c2)NC1=O (stereo not shown) = >64 µg/mL

----------
Reported MIC Streptococcus pneumoniae (GC 4565) values are given for each entry in this list.
test system: Streptococcus sp.; test: in vitro antibacterial evaluation, MIC by broth dilution; assay type: cell-based; settings: broth dilution, inoculum 5×10^5 CFU/mL, 18 hours at 35° C.; strain GC 4565
experimental_readout: MIC Streptococcus pneumoniae (GC 4565)

1) CC(c1ccccc1)C1NC(=O)CNC(=O)C(CO)NC(=O)C(C(O)C2CNC(=N)N2C2OC(CO)C(O)C(O)C2O)NC(=O)C(C(O)C2CNC(=N)N2)NC(=O)C(Cc2ccc(OC3OC(CO)C(OC4OC5COC(c6ccc(C(=O)c7ccccc7)cc6)OC5C(O)C4O)C(O)C3O)cc2)NC1=O (centres unmarked) [Example 173] = <0.12 µg/mL
2) CC(C1CCCCC1)C1NC(=O)CNC(=O)C(CO)NC(=O)C(C(O)C2CNC(=N)N2C2OC(CO)C(O)C(O)C2O)NC(=O)C(C(O)C2CNC(=N)N2)NC(=O)C(Cc2ccc(OC3OC(CO)C(OC4OC5COC(c6ccccc6)OC5C(O)C4O)C(O)C3O)cc2)NC1=O (centres unmarked) [Example 201] = <0.12 µg/mL
3) N=C1NCC(C(O)C2NC(=O)C(CC3CCC(OC4OC(CO)C(OC5OC6COC7(OC6C(O)C5O)C5CC6CC(C5)CC7C6)C(O)C4O)CC3)NC(=O)C(CC3CCCCC3)NC(=O)CNC(=O)C(CO)NC(=O)C(C(O)C3CNC(=N)N3C3OC(CO)C(O)C(O)C3O)NC2=O)N1 (single isomer, unassigned) [Example 223] = >64 µg/mL
4) CC(c1ccccc1)C1NC(=O)CNC(=O)C(CO)NC(=O)C(C(O)C2CNC(=N)N2C2OC(CO)C(O)C(O)C2O)NC(=O)C(C(O)C2CNC(=N)N2)NC(=O)C(Cc2ccc(OC3OC(CO)C(OC4OC(CO)C(O)C(O)C4OCc4ccc(OCc5ccccc5)cc4)C(O)C3O)cc2)NC1=O (centres unmarked) [Example 231b] = 0.5 to 8 µg/mL
5) CC(c1ccccc1)C1NC(=O)CNC(=O)C(CO)NC(=O)C(C(O)C2CNC(=N)N2C2OC(CO)C(O)C(O)C2O)NC(=O)C(C(O)C2CNC(=N)N2)NC(=O)C(Cc2ccc(OC3OC(CO)C(OC4OC5COC(c6ccccc6)OC5C(O)C4O)C(O)C3O)c(I)c2)NC1=O (centres unmarked) [Example 196] = 64 µg/mL
6) COc1ccc(Oc2cccc(C3OCC4OC(OC5C(CO)OC(Oc6ccc(CC7NC(=O)C(C(C)c8ccccc8)NC(=O)CNC(=O)C(CO)NC(=O)C(C(O)C8CNC(=N)N8C8OC(CO)C(O)C(O)C8O)NC(=O)C(C(O)C8CNC(=N)N8)NC7=O)cc6)C(O)C5O)C(O)C(O)C4O3)c2)cc1 (centres unmarked) [Example 180] = <0.06 µg/mL
7) CCCC(C)C1OCC2OC(OC3C(CO)OC(Oc4ccc(CC5NC(=O)C(C(C)c6ccc(Cl)cc6)NC(=O)CNC(=O)C(CO)NC(=O)C(C(O)C6CNC(=N)N6C6OC(CO)C(O)C(O)C6O)NC(=O)C(C(O)C6CNC(=N)N6)NC5=O)cc4)C(O)C3O)C(O)C(O)C2O1 (centres unmarked) [Example 194] = <0.06 µg/mL
8) CC(c1ccc(Cl)cc1)C1NC(=O)CNC(=O)C(CO)NC(=O)C(C(O)C2CNC(=N)N2C2OC(CO)C(O)C(O)C2O)NC(=O)C(C(O)C2CNC(=N)N2)NC(=O)C(Cc2ccc(OC3OC(CO)C(OC4OC5COC(c6ccccc6)OC5C(O)C4O)C(O)C3O)cc2)NC1=O (centres unmarked) [Example 195] = 0.12 µg/mL
9) CC(c1ccccc1)C1NC(=O)CNC(=O)C(CO)NC(=O)C(C(O)C2CN(Cc3ccc(C(F)(F)F)cc3)C(=N)N2C2OC(CO)C(O)C(O)C2O)NC(=O)C(C(O)C2CNC(=N)N2)NC(=O)C(Cc2ccc(OC3OC(CO)C(OC4OC5COC6(OC5C(O)C4O)C4CC5CC(C4)CC6C5)C(O)C3O)cc2)NC1=O (centres unmarked) [Example 226] = 4 µg/mL
10) CC(C)=CCCC(C)=CCOc1ccc(C2OCC3OC(OC4C(CO)OC(Oc5ccc(CC6NC(=O)C(C(C)c7ccccc7)NC(=O)CNC(=O)C(CO)NC(=O)C(C(O)C7CNC(=N)N7C7OC(CO)C(O)C(O)C7O)NC(=O)C(C(O)C7CNC(=N)N7)NC6=O)cc5)C(O)C4O)C(O)C(O)C3O2)cc1 (centres unmarked) [Example 183] = <0.06 µg/mL
11) CC(C)=CCCC(C)=CCCC(C)=CCOc1cccc(C2OCC3OC(OC4C(CO)OC(Oc5ccc(CC6NC(=O)C(C(C)c7ccccc7)NC(=O)CNC(=O)C(CO)NC(=O)C(C(O)C7CNC(=N)N7C7OC(CO)C(O)C(O)C7O)NC(=O)C(C(O)C7CNC(=N)N7)NC6=O)cc5)C(O)C4O)C(O)C(O)C3O2)c1 (centres unmarked) [Example 185] = <0.06 µg/mL
12) COc1ccc(COCC2OC(OC3C(CO)OC(Oc4ccc(CC5NC(=O)C(C(C)c6ccccc6)NC(=O)CNC(=O)C(CO)NC(=O)C(C(O)C6CNC(=N)N6C6OC(CO)C(O)C(O)C6O)NC(=O)C(C(O)C6CNC(=N)N6)NC5=O)cc4)C(O)C3O)C(O)C(O)C2O)cc1OCc1ccccc1 (centres unmarked) [Example 239] = <0.06 µg/mL
13) Cc1ccc(Oc2ccc(C3OCC4OC(OC5C(CO)OC(Oc6ccc(CC7NC(=O)C(C(C)c8ccccc8)NC(=O)CNC(=O)C(CO)NC(=O)C(C(O)C8CNC(=N)N8C8OC(CO)C(O)C(O)C8O)NC(=O)C(C(O)C8CNC(=N)N8)NC7=O)cc6)C(O)C5O)C(O)C(O)C4O3)cc2)cc1 (centres unmarked) [Example 174] = <0.06 µg/mL
14) CCCCN1CC(C(O)C2NC(=O)C(C(O)C3CNC(=N)N3)NC(=O)C(Cc3ccc(OC4OC(CO)C(OC5OC6COC7(OC6C(O)C5O)C5CC6CC(C5)CC7C6)C(O)C4O)cc3)NC(=O)C(C(C)c3ccccc3)NC(=O)CNC(=O)C(CO)NC2=O)N(C2OC(CO)C(O)C(O)C2O)C1=N (centres unmarked) [Example 224] = 0.25 µg/mL

FYI, the data here is from patent US6914045B2.
